Values were extracted from the supplement of paper PMC10567573.

Some variants, each annotated with its measured protein stability index.
B1: ANKRD17 (parent)
chain: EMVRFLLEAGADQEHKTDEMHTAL

- Variants of: B1
- Assay Info: protein stability index of a GFP-peptide fusion (GPS, HEK-293T) (PSI 1-6); higher = more stable;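 also: lentivirally expressed fusions sorted by FACS into six bins by GFP to DsRed ratio, PSI derived from sequencing read proportions per bin multiplied by bin number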
- Experimental Conditions: c terminus: a fixed tail appended
Answer as a number with no unit attached.

>  <Mutation Id>
Q13A

>  <Experimental Value>
2.65

$$$$

Proceed to the following item.
Could you share which protein stability index value was measured for K16L ?
3.11
